- System tested: Bromodomain-containing protein 4 (Homo sapiens)
- Procedure text: Inhibition of BRD4 (unknown origin) incubated for 120 mins by TR-FRET assay
Parameter measured: IC50
Write the numeric value and follow it with the unit.

# lookup: IC50 of Cc1sc2c(c1C)C(c1ccc(Cl)cc1)=N[C@@H](CC(=O)NC1CCN(C(=O)CCl)CC1)c1nnc(C)n1-2
331 nM

###

Can you tell me pIC50 for the items I'm about to list?
- System: MDA-MB-231
- Procedure text: cells
- Recorded conditions: Homo sapiens, MDA-MB-231, 72 h
- Description: Antiproliferative activity against human MDA-MB-231 cells assessed as inhibition of cell proliferation incubated for 72 hrs by MTT assay
Numbers only, as −log10 of the molar value.

A selection of reference data follows.
query_smiles=Cc1sc2c(c1C)C(c1ccc(Cl)cc1)=N[C@@H](CC(=O)NCCCCNC(=O)CCl)c1nnc(C)n1-2 system_tested=MDA-MB-231 value_observed=5.33
query_smiles=Cc1sc2c(c1C)C(c1ccc(Cl)cc1)=N[C@@H](CC(=O)Nc1ccc(CNC(=O)CCl)cc1)c1nnc(C)n1-2 system_tested=MDA-MB-231 value_observed=5.84
query_smiles=Cc1sc2c(c1C)C(c1ccc(Cl)cc1)=N[C@@H](CC(=O)NC1CCN(C(=O)CCl)CC1)c1nnc(C)n1-2 system_tested=MDA-MB-231 value_observed=6.31

Dear colleague, could you please provide pIC50 for the compounds listed below?
1. Cc1sc2c(c1C)C(c1ccc(Cl)cc1)=N[C@@H](CC(=O)Nc1ccc(CCNC(=O)CCl)cc1)c1nnc(C)n1-2
2. Cc1sc2c(c1C)C(c1ccc(Cl)cc1)=N[C@@H](CC(=O)N1CCN(C(=O)CCl)CC1)c1nnc(C)n1-2
3. Cc1sc2c(c1C)C(c1ccc(Cl)cc1)=N[C@@H](CC(=O)NCc1ccc(NC(=O)CCl)cc1)c1nnc(C)n1-2
4. Cc1sc2c(c1C)C(c1ccc(Cl)cc1)=N[C@@H](CC(=O)NCCCCCCNC(=O)CCl)c1nnc(C)n1-2
5. Cc1sc2c(c1C)C(c1ccc(Cl)cc1)=N[C@@H](CC(=O)NCCOCCNC(=O)CCl)c1nnc(C)n1-2
6. Cc1sc2c(c1C)C(c1ccc(Cl)cc1)=N[C@@H](CC(=O)NCCc1ccc(NC(=O)CCl)cc1)c1nnc(C)n1-2

4.86
6.13
5.82
5.28
5.41
6.16
